These measurements were taken from ChEMBL document CHEMBL3102758.

# system.under.test: Beta-secretase 1 (Homo sapiens, UniProt P56817)
# Sequence (P56817 whole entry): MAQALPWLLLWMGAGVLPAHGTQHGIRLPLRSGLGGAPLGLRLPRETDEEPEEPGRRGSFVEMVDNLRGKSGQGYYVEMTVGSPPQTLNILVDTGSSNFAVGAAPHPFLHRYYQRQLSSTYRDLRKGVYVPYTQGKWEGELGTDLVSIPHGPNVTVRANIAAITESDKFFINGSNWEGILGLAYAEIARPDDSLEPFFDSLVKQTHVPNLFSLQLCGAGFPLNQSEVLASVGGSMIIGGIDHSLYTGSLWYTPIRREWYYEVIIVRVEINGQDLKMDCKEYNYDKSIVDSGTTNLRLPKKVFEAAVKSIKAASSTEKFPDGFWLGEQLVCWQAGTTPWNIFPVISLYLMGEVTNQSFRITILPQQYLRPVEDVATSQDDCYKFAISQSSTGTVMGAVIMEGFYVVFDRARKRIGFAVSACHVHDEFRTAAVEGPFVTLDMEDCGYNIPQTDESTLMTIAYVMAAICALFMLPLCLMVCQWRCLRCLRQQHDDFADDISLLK
# method: Inhibition of recombinant human BACE1 using (7-methoxycoumarin-4-yl)acetyl-SEVNL*DAEFRK(2,4-dinitrophenyl)-RR-NH2) as substrate at 2 uM by FRET assay
Output schema: class label derived from inhibition. Mapping: bin 0 (below 30%), bin 1 (30% to below 70%), bin 2 (70% or more)

>  <cpd.smiles>
Cc1cc(C(=O)N[C@@H](Cc2ccccc2)[C@H](O)C(=O)Nc2cccc(-c3nn[nH]n3)c2)nc(C(=O)N2COC[C@@H]2c2ccccc2)c1

>  <assigned.label>
bin 2

$$$$
>  <cpd.smiles>
C[C@H](NC(=O)c1cc(=O)cc(C(=O)N[C@@H](Cc2ccccc2)[C@H](O)C(=O)Nc2cccc(-c3nn[nH]n3)c2)o1)c1ccccc1

>  <assigned.label>
bin 0

$$$$
>  <cpd.smiles>
CN(NC(=O)c1cc(=O)cc(C(=O)N[C@@H](Cc2ccccc2)[C@H](O)C(=O)Nc2cccc(-c3nn[nH]n3)c2)o1)c1ccccc1

>  <assigned.label>
bin 0

$$$$
>  <cpd.smiles>
CSc1cc(C(=O)N[C@@H](Cc2ccccc2)[C@H](O)C(=O)Nc2cccc(-c3nn[nH]n3)c2)nc(C(=O)N2COC[C@@H]2c2ccccc2)c1

>  <assigned.label>
bin 2

$$$$
>  <cpd.smiles>
COc1cc(C(=O)N[C@@H](Cc2ccccc2)[C@H](O)C(=O)Nc2cccc(-c3nn[nH]n3)c2)nc(C(=O)N[C@H](C)c2ccccc2)c1

>  <assigned.label>
bin 2

$$$$
>  <cpd.smiles>
CCCN(CCC)C(=O)c1cc(=O)cc(C(=O)N[C@@H](Cc2ccccc2)[C@@H](O)C(=O)Nc2cccc(-c3nnn[nH]3)c2)o1

>  <assigned.label>
bin 1

$$$$
>  <cpd.smiles>
C[C@@H](NC(=O)c1cc(=O)cc(C(=O)N[C@@H](Cc2ccccc2)[C@H](O)C(=O)Nc2cccc(-c3nn[nH]n3)c2)o1)C1CCCCC1

>  <assigned.label>
bin 0

$$$$
>  <cpd.smiles>
CN(Cc1ccccc1)C(=O)c1cc(=O)cc(C(=O)N[C@@H](Cc2ccccc2)[C@H](O)C(=O)Nc2cccc(-c3nn[nH]n3)c2)o1

>  <assigned.label>
bin 1

$$$$
>  <cpd.smiles>
C[C@@H](NC(=O)c1cc(=O)cc(C(=O)N[C@@H](Cc2ccccc2)[C@H](O)C(=O)Nc2cccc(-c3nn[nH]n3)c2)o1)c1ccc(Cl)cc1

>  <assigned.label>
bin 1

$$$$
>  <cpd.smiles>
Cc1ccc([C@@H](C)NC(=O)c2cc(=O)cc(C(=O)N[C@@H](Cc3ccccc3)[C@H](O)C(=O)Nc3cccc(-c4nn[nH]n4)c3)o2)cc1

>  <assigned.label>
bin 1

$$$$
>  <cpd.smiles>
COc1cc(C(=O)N[C@@H](Cc2ccccc2)[C@H](O)C(=O)Nc2cccc(-c3nn[nH]n3)c2)nc(C(=O)N2COC[C@@H]2c2ccccc2)c1

>  <assigned.label>
bin 2

$$$$
>  <cpd.smiles>
O=C(N[C@@H](CO)c1ccccc1)c1cc(=O)cc(C(=O)N[C@@H](Cc2ccccc2)[C@H](O)C(=O)Nc2cccc(-c3nn[nH]n3)c2)o1

>  <assigned.label>
bin 0

$$$$
>  <cpd.smiles>
C[C@@H](NC(=O)c1cc(=O)cc(C(=O)N[C@@H](Cc2ccccc2)[C@H](O)C(=O)Nc2cccc(-c3nn[nH]n3)c2)o1)c1ccc([N+](=O)[O-])cc1

>  <assigned.label>
bin 1

$$$$
>  <cpd.smiles>
[N-]=[N+]=Nc1cc(C(=O)N[C@@H](Cc2ccccc2)[C@H](O)C(=O)Nc2cccc(-c3nn[nH]n3)c2)nc(C(=O)N2COC[C@@H]2c2ccccc2)c1

>  <assigned.label>
bin 2

$$$$
>  <cpd.smiles>
CCCN(CCC)C(=O)c1cc(=O)cc(C(=O)N[C@@H](Cc2ccccc2)[C@@H](O)C(=O)Nc2cccc(C(=O)O)c2)o1

>  <assigned.label>
bin 0

$$$$
>  <cpd.smiles>
C[C@@H](NC(=O)c1cc(OS(=O)(=O)Cc2ccccc2)cc(C(=O)N[C@@H](Cc2ccccc2)[C@H](O)C(=O)Nc2cccc(-c3nn[nH]n3)c2)n1)c1ccccc1

>  <assigned.label>
bin 0

$$$$
>  <cpd.smiles>
CCOc1cc(C(=O)N[C@@H](Cc2ccccc2)[C@H](O)C(=O)Nc2cccc(-c3nn[nH]n3)c2)nc(C(=O)NC(C)(C)c2ccccc2)c1

>  <assigned.label>
bin 1

$$$$
